Cited source: paper PMC9477280

# system.name: T1, EPEC Tir (enteropathogenic E. coli (EPEC), UniProt B7UM99)
# T1 construct: also called GST-tagged EPEC Tir; recombinant his-tagged Tir
# method: ELISA; capture dilution ELISA; plate coated with 5 μg/mL of a non-competing VHH (no thioredoxin, no E-tag), antigen at 1 μg/mL captured for 1 h at 37°C (S1 Fig c-d: EPEC Tir, REPEC Tir); thioredoxin/VHH/E-tag from 125 nM in 1:5 serial dilutions; HRP anti-E-tag; EC50 estimates (apparent affinity); trace = EC50 >125 nM
# protocol.conditions: both partners purified
endpoint: EC50 (pM)
Expressed in pM, but write only the number.

JVA-A1 (VHH, also called αTir-7; JVF-1 (vector name); not shown: thioredoxin, N-terminal, kept; E-tag, C-terminal, kept) VHH: SGGSVEAGDSLRLSCAASGRGFGDGALAWFRQAPGKEREYVAAVGHSGTDTYYADSVKGRFTISRDNAKNMGYLQMDSLRPDDTGVYYCALDLHLGQPGYDYWGQGTQVTVSS: 10000
JVC-D10 (VHH, also called αTir-5; JVI-2 (vector name); not shown: thioredoxin, N-terminal, kept; E-tag, C-terminal, kept) VHH: TGGLVQTGDSLTLSCVVSGRGFCDWAMAWFRQAPGKEREKVSAIGWSGQDTYYSEPAKGRFTISRDNAKNTVWLRMTNLKSEDTAVYYCAAATRAYADYDYWGQGTQVTVSS: 200
JVC-C6 (VHH, also called αTir-4; JVI-1 (vector name); not shown: thioredoxin, N-terminal, kept; E-tag, C-terminal, kept) VHH: SGGGLVQAGGSLRLSCAASGVTFVDYATGWFRQAPGKEREGIACISNGASGSFVVNSVKGRFTTSTDNAKNTAYLQMNDLKPEDTATYYCALLGRTGGHCTDPNEYSYWGQGTQVTVSS: 200

Request: # input binder: JVA-C8 (VHH, also called αTir-8; JVF-2 (vector name); not shown: thioredoxin, N-terminal, kept; E-tag, C-terminal, kept) VHH: SGGGLVQAGGSLRLSCAASGFTFVDYGIAWVRQAPGKEREGVSCVSTSNRSQWYADSVKGRFTISSDNAKNTVYLQMDNLKPEDTAVYYCTRIDVGDNCRDGGGYRGQGTQVTISS ; wanted: its EC50
Result: 200

Request: Report EC50 for JVA-D11 (VHH, also called αTir-12; JVF-8 (vector name); not shown: thioredoxin, N-terminal, kept; E-tag, C-terminal, kept) VHH: SGGGLVQAGGSLRLSCAASGFTFNDYAKAWFRRAPGKEREGISAISSMGESTFYADSVKGRFTISSDSAKNTVYLQMNSLKPEDTAVYYCAADPTVKWGHVLREENYDYWGQGTQVTVVS please.
Result: 200

Request: Please give the measured EC50 for this binder: JVA-E10 (VHH, also called αTir-13; JVF-12 (vector name); not shown: thioredoxin, N-terminal, kept; E-tag, C-terminal, kept) VHH: SGGGLVQAGGSLRLSCVASGRTFSDYAMGWFRQAPGKEREFVAAISWNGGSTYYADSVKGRFTISRDNAKNTMYLQMNSLKSEDTAVYYCISEGRGLRQVKTATDWEYWGQGTQVTVSP
Result: 200
